test system: P388/ADR; assay: cells; format: functional; conditions: Mus musculus
The source made the active and inactive calls. No stated cut-off is given here; in the data, active = GI50 up to about 1.1 µM and inactive = higher.
Possible outcomes: y for active, n for inactive

[[record]]
compound = "C=C(C)C(=O)/N=C(\\N)NC#N"
label = "n"

[[record]]
compound = "Cc1cc(O)c2c(=O)c3c(O)cc(O)c4c5c(O)cc(O)c6c(=O)c7c(O)cc(C)c8c1c2c(c34)c(c78)c65"
label = "n"

[[record]]
compound = "CN(C)CCNC(=O)c1cccc2c(=O)c3ccccc3oc12"
label = "n"

[[record]]
compound = "COC(=O)[C@@]12OC[C@]34[C@H]([C@@H](O)[C@@H]1O)[C@@]1(C)CC(=O)C(O)=C(C)[C@@H]1C[C@H]3OC(=O)[C@H](OC(=O)/C=C(\\C)C(C)C)[C@@H]24 [BRUCEANTIN]"
label = "y"

[[record]]
compound = "CSC[S+]([O-])C[C@H](CO)NC(=O)/C=C/c1c(C)[nH]c(=O)[nH]c1=O (stereo not given in full)"
label = "y"

